- TARGET ENTITY: T1, ECF11_3726
- T1 chain: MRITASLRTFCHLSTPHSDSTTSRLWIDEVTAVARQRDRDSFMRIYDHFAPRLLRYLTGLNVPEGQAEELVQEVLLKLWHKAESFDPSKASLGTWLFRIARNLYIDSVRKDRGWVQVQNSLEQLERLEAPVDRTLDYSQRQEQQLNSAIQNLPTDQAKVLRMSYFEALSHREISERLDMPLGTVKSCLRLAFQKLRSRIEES
true (1) means recorded fold repression is 7 or above; false (0) means it is below 7.

Lookup: Decide: fold repression of AS03_1244 (protein) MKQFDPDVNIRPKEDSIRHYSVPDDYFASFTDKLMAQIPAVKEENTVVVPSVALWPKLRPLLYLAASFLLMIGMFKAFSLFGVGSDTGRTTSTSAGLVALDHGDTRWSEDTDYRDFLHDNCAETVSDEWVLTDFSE >= 7?
Found: false (0)

Lookup: Quick check: does AS15_524 (protein) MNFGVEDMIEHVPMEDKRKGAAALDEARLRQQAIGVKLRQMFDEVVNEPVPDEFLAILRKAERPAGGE have fold repression greater than or equal to 7?
Found: true (1)

Lookup: Assess whether reported fold repression for AS33_375 (protein) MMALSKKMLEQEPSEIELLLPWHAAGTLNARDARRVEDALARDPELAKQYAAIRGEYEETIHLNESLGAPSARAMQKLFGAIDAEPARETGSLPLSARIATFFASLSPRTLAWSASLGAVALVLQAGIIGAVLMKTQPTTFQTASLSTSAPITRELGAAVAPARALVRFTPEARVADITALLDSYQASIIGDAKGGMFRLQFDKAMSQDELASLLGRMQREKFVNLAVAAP sits at 7 or higher.
Found: true (1)

Lookup: Item AS02_915 (protein) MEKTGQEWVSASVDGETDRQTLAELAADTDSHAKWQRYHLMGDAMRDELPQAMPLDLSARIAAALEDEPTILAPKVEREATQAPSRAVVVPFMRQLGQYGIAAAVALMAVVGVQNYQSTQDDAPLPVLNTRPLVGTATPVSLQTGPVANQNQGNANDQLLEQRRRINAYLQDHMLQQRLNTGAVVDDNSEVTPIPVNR with fold repression of 7 or above?
Found: true (1)

Lookup: Please tell me: is the binder AS04_1609 (protein) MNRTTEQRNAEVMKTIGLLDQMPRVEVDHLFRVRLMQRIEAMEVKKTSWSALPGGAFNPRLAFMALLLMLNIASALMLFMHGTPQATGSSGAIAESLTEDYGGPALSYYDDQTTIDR at or over 7 in terms of fold repression?
Found: true (1)

Lookup: Does the binder AS25_1643_cl43 (protein) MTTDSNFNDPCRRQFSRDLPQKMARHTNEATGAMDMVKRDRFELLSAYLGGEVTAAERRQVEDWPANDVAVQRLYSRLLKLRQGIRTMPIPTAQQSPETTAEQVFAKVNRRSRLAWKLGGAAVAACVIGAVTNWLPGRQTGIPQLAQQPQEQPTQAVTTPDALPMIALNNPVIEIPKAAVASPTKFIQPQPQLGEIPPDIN have recorded fold repression that is 7 or more?
Found: false (0)

Lookup: Textbook exercise: given the entry AS33_423 (protein) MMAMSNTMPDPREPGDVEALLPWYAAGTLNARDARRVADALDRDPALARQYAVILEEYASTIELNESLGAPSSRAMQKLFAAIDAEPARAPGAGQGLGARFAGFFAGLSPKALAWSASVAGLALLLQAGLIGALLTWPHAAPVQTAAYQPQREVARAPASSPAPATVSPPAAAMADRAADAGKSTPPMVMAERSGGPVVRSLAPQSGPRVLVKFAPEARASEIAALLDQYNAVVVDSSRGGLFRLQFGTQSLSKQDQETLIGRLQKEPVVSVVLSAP , state whether its fold repression is greater than or equal to 7.
Found: true (1)

Lookup: Identify whether the reported fold repression of the following binder is 7 or greater: AS20_992 (protein) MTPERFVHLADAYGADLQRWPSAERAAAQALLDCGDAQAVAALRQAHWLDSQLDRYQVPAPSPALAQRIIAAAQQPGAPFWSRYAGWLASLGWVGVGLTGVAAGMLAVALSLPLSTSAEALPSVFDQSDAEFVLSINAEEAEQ
Found: false (0)

Lookup: Hi team, for AS22_1147 (protein) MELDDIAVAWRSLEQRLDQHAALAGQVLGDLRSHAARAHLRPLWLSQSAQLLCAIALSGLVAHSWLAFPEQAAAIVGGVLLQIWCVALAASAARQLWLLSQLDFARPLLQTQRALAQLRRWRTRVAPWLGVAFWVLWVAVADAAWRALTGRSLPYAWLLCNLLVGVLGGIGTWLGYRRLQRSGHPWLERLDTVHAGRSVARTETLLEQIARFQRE , is the recorded fold repression at or above 7?
Found: false (0)

Lookup: Confirm if fold repression reported for the binder AS31_34 (protein) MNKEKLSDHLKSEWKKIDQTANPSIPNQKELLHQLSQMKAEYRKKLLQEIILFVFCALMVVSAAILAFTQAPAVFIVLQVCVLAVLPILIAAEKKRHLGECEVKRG is 7 or above.
Found: false (0)
